Test system: RAW-Dual (murine macrophage reporter line)
Experiment: NF-kB reporter (SEAP) activity fold change vs agonist alone; higher = enhanced NF-kB activity
Conditions: modulator concentration 10 µM; agonist: LPS 0.1 ug/mL
measured_attribute: NF-kB reporter
In your answer, state the number alone without any accompanying words.

Any idea what NF-kB reporter was measured for Cl.Cl.Clc1ccc(Nc2nnc(Cc3ccncc3)c3ccccc23)cc1 ? 1

Would you mind telling me what NF-kB reporter value was observed for Cc1ccc(-n2ncc3c(Nc4cccc(C)c4)ncnc32)cc1 ? 1.14

Bench note: what NF-kB reporter did COc1ccc(OCCSc2nc3ccccc3n2CCO)cc1 show? 1.09

Request the reported NF-kB reporter associated with CCOC(=O)C1=C[C@]2(CC)CCCN3CCc4c(n1c1ccccc41)[C@@H]32 0.946

Quick one: NF-kB reporter for COc1ccc(C2OCC3C(c4ccc(OC)c(OC)c4)OCC23)cc1OC (centres undefined) ? 1.03

I am curious: what NF-kB reporter value has been reported for O=C(NCCN1CCN(c2ccc(F)cc2)CC1)c1ccno1 ? 0.965

Report NF-kB reporter for COc1ccc(C=NNC(=O)c2ccc(CN3CCOCC3)cc2)cc1[N+](=O)[O-] please. 1.06

Give its NF-kB reporter value. Item: Cc1ccc(NC(=O)c2ccccc2Oc2ccccc2)cc1 1.1

// NF-kB reporter lookup, key: CCN(CC)CCCC(C)Nc1c2ccc(Cl)cc2nc2ccc(OC)cc12 (centres undefined) 0.167

###

System: RAW-Dual (murine macrophage reporter line)
Assay: IRF reporter (Lucia luciferase) activity fold change vs agonist alone; higher = enhanced IRF activity
Conditions: modulator concentration 10 µM; agonist: LPS 0.1 ug/mL
measured_attribute: IRF reporter

Quick one: IRF reporter for O=C(CCc1ccc(O)cc1)c1c(O)cc(O)cc1OC1OC(CO)C(O)C(O)C1O (stereo not drawn) ? 0.98

Which value of IRF reporter has been reported for CC1(C)Cc2cccc(OCC(=O)NCc3ccccn3)c2O1 in the records? 1.02

Reported IRF reporter for COc1ccc(NC(=O)CN(c2ccc(C)c(C)c2)S(C)(=O)=O)cc1Cl : what is it? 0.973

###

Tested on: RAW-Dual (murine macrophage reporter line)
Assay: NF-kB reporter (SEAP) activity fold change vs agonist alone; higher = enhanced NF-kB activity
Details: modulator concentration 10 µM; agonist: MPLA […]
# NF-kB reporter >= 1 gives satisfied, anything below gives not satisfied

Answer whether NF-kB reporter of Nc1nccs1 is greater than or equal to 1. not satisfied

Form field: NF-kB reporter at least 1? Entry: COc1cc2ccc(=O)oc2cc1O not satisfied

Is reported NF-kB reporter greater than or equal to 1 here: O=C(/C=C/c1cccc(S(=O)(=O)Nc2ccccc2)c1)NO satisfied

Evaluate O=C(NCCN1CCN(c2ccc(Cl)cc2)CC1)c1ccno1 : NF-kB reporter at minimum 1? satisfied

API: above_or_equal(metric=NF-kB reporter, cutoff=1) for item Cc1ccc(S(=O)(=O)CCSc2cccc(C(=O)Nc3ccccc3)c2)cc1 not satisfied

Evaluate CC(C)(C)N1CC(c2nc3ccccc3n2Cc2c(F)cccc2Cl)CC1=O (stereo not given) : NF-kB reporter at minimum 1? not satisfied

Tell me whether NF-kB reporter is at least 1 here: Cc1[nH]c2ccc(Br)cc2c(=O)c1CN1CCCCC1 not satisfied

// inclusive: NF-kB reporter at least 1? input: COc1ccc(S(=O)(=O)NNc2ccc([N+](=O)[O-])cc2[N+](=O)[O-])cc1 not satisfied

Form field: NF-kB reporter at least 1? Entry: COc1ccc(C(=O)C=Cc2cc(OC)c(OC)cc2OC)c(OC)c1 not satisfied

Confirm if NF-kB reporter reported for the compound COc1ccc(CC(=O)Nc2nc(CSCc3ccc(F)cc3)cs2)cc1 is 1 or above. satisfied

Reported NF-kB reporter reaches at least 1 for Cc1cc(C(=O)N2CCC(Oc3cccc4cccnc34)CC2)c(C)o1 ? not satisfied

Does the compound CCCCOC(=O)C1=C(C)NC2=C(C(=O)CCC2)C1c1cccc(C(F)(F)F)c1 (stereo not given) have recorded NF-kB reporter that is 1 or more? not satisfied

Decide: NF-kB reporter of CC(C)COc1ccc(CNC(=O)N(Cc2ccc(F)cc2)C2CCN(C)CC2)cc1.CC(C)COc1ccc(CNC(=O)N(Cc2ccc(F)cc2)C2CCN(C)CC2)cc1.O=C(O)[C@H](O)[C@@H](O)C(=O)O >= 1? not satisfied

Is NF-kB reporter at least 1? Consider Cc1c(Cl)ccc2c1NC(C(=O)O)C1CC=CC21 (stereo not given) not satisfied

State whether the measured NF-kB reporter reaches 1, counting equality as reaching it, for CSCCC(NC(C)=O)C(=O)N1CCC(n2c(C)nc3ccccc32)C1 (stereo not given) not satisfied

Record O=C(CCCN1CCC(O)(c2ccc(Br)cc2)CC1)c1ccc(F)cc1 ; criterion: NF-kB reporter no lower than 1. Met? satisfied

Hi, just wondering whether Cc1ccccc1CNC(=O)CN(c1cccc(C(F)(F)F)c1)S(C)(=O)=O shows NF-kB reporter of 1 or higher. satisfied

Reported NF-kB reporter at or above 1? C=CC(=O)Nc1cccc(Oc2nc(Nc3ccc(N4CCN(C)CC4)cc3)nc3ccsc23)c1 not satisfied

hey, is NF-kB reporter for this one >= 1? CN(C/C=C/C#CC(C)(C)C)Cc1cccc2ccccc12 satisfied

Could you verify whether the entry COc1cc(Cl)cc(C=NNC(=O)c2cc(C)n[nH]2)c1O shows NF-kB reporter of no less than 1? not satisfied

Dear colleague, could you confirm whether Cl.c1ccc(CC2=NCCN2)cc1 has NF-kB reporter at or above 1? not satisfied

Textbook exercise: given the entry Cc1cc(CNS(=O)(=O)Cc2ccc(C(F)(F)F)cc2)c(C)o1 , state whether its NF-kB reporter is greater than or equal to 1. not satisfied

Threshold query (NF-kB reporter >= 1) on CC(C)(C)c1ccc(-c2nc(-c3cccc([N+](=O)[O-])c3)no2)cc1 not satisfied

Reported NF-kB reporter reaches at least 1 for Cc1cc(O)c2c(c1)C(=O)c1cccc(O)c1C2=O ? satisfied

Exam item: decide whether the reported NF-kB reporter for O=C(c1ccc(F)c(F)c1Nc1ccc(I)cc1F)N1CC(O)([C@@H]2CCCCN2)C1 is at least 1. not satisfied

Textbook exercise: given the entry CCOC(=O)C1=C(C)NC(C)=C(C(=O)OCC)C1c1cc(Cl)cc(Cl)c1OC , state whether its NF-kB reporter is greater than or equal to 1. satisfied

# check: NF-kB reporter of O=C(O)CSCC(=O)NC1CCSC1=O (stereo not given) is greater than or equal to 1 satisfied

###

Tested on: RAW-Dual (murine macrophage reporter line)
Experiment: IRF reporter (Lucia luciferase) activity fold change vs agonist alone; higher = enhanced IRF activity
Conditions: modulator concentration 10 µM; agonist: LPS 0.1 ug/mL
Would you mind telling me the reported IRF reporter of each entry?
Format: numeric value only, no unit, no commentary.

# get_value(readout='IRF reporter', item= CCOc1ccccc1NC(=O)N1CCCC1CS(=O)(=O)c1ccccc1 (centres undefined) ) 1.3

Would you mind telling me what IRF reporter value was observed for CC(C)Oc1cccc(C(=O)NC(=S)N2CCN(c3ccc([N+](=O)[O-])cc3)CC2)c1 ? 1.19

State the recorded IRF reporter for this entry: CCOc1ccc(CC(=O)N2C3C=CCC2CC3)cc1 (centres undefined) 1.22

Reported IRF reporter, molecule CC1=CC(=NS(=O)(=O)c2ccc(C)cc2)C=C(Cl)C1=O : ____ 0.611

###

System: RAW-Dual (murine macrophage reporter line)
Assay: IRF reporter (Lucia luciferase) activity fold change vs agonist alone; higher = enhanced IRF activity
Conditions: modulator concentration 10 µM; agonist: LPS 0.1 ug/mL
measured_attribute: IRF reporter
Answer with the value's number alone.

Which IRF reporter is listed for O=C1CNC(=O)N1CC(O)Cn1c2ccc(Br)cc2c2cc(Br)ccc21 (centres undefined) ? 0.928

Returns the measured IRF reporter for the input compound. Input: CC(=O)N1CCN=C1SCc1cccc(C(F)(F)F)c1 0.912

Consider the compound CC(C)C1=CC2=CCC3C(C)(C(=O)O)CCCC3(C)C2CC1 (centres undefined) and give its measured IRF reporter. 1.22

Given COC(=O)C1C(O)CCC2CN3CCc4c([nH]c5ccccc45)C3CC21.Cl (centres undefined) , state its recorded IRF reporter. 1.15

Find the recorded IRF reporter belonging to COc1ccc(Cl)c(Nc2nc3ccccc3nc2NS(=O)(=O)c2cccc(NC(=O)C(C)(C)N)c2)c1 and report it. 1.21

IRF reporter for O=C(NCC1(O)CCc2ccccc2C1)Nc1ccccc1C(F)(F)F (centres undefined) ? 1.17

Param item = COc1cc(C=C2SC(=S)NC2=O)ccc1OCCC(C)C ; retrieve measured IRF reporter. 1.43

Give its IRF reporter value. Item: CS(=O)(=O)N(CC(=O)NCCSCc1cccc(Cl)c1)c1cccc(Cl)c1 1.08

For the compound N#CC[C@H](C1CCCC1)n1cc(-c2ncnc3[nH]ccc23)cn1 , what IRF reporter is on record? 0.719

Form field: reported IRF reporter of CCn1c(C=Nn2cnnc2)nc2ccccc21 0.903

What value of measured IRF reporter is listed for CCN(CC)c1ccc(C=Nn2nnnc2N)c(O)c1 ? 1.06

Look up IRF reporter: COc1ccc2sc(C)[n+](CCCS(=O)(=O)[O-])c2c1 1.05

Name the reported IRF reporter value associated with the compound O=Cc1cn(CCOc2ccc(Br)cc2)c2ccccc12 0.674

Quick one: IRF reporter for Cl.Nc1c(Br)cc(Br)cc1CNC1CCC(O)CC1 (centres undefined) ? 0.94

Look up IRF reporter: CC(C)Sc1ccc(CC(=O)N2C3C=CCC2CC3)cc1 (centres undefined) 1.43

Quick check: IRF reporter of C=CC(=O)N1CCC(Oc2cc3c(Nc4ccc(Cl)c(Cl)c4F)ncnc3cc2OC)CC1 ? 1.36

Recorded IRF reporter of CC(C)(C)C1(O)CC(C(F)(F)F)=NN1C(=O)c1cccc([N+](=O)[O-])c1 (centres undefined) , please. 1.48

What value of IRF reporter has been reported for the following compound? CCCOc1cccc(C(=O)Nc2scc(-c3ccccc3Cl)c2C(=O)OC)c1 1.54

For the compound COC(=O)C1=C(C)NC(C)=C(C(=O)OC)C1c1c(F)cccc1Cl , what IRF reporter is on record? 1.17

Returns the measured IRF reporter for the input compound. Input: CCn1nnc2c(NCCc3c[nH]c4ccccc34)ncnc21 1.05

# lookup: IRF reporter of CCC1SC(=NN=Cc2cccc3ccccc23)NC1=O (centres undefined) 1.01

Which IRF reporter value belongs to Cc1cc(Nc2cc(N3CCN(C)CC3)nc(Sc3ccc(NC(=O)C4CC4)cc3)n2)n[nH]1 ? 0.537

I have this compound here, O=C(Nc1ccccc1)NC1CCS(=O)(=O)C1 (centres undefined) , and I need its recorded IRF reporter. 0.889

Query (compound): O=C(O)CC(C(=O)O)N1C(=O)C(=C2C(=O)Nc3ccc(Br)cc32)SC1=S (centres undefined) ; field requested: IRF reporter 1.24

Give the measured IRF reporter of COc1ccc(C(O)CN2CCN(c3cccc(C)c3C)CC2)cc1OC (centres undefined) . 0.873

// query IRF reporter value for entry C/C(=C(\CCOP(=O)(O)O)SC(=O)c1ccccc1)N(C=O)Cc1cnc(C)nc1N 1.04

Any idea what its IRF reporter is? The compound is Cc1ccc(OCC(O)CN2CCCCC2)c(C)c1.Cl (centres undefined) 1.21

Given the entry CS(=O)(=O)Nc1cccc(F)c1 , report its measured IRF reporter. 1.07

Please look up its IRF reporter: Cn1c(=O)[nH]c2nnc(-c3cccnc3)nc2c1=O 1.22

For C=C1C(=O)OC2CC3(C)CCCC(C)C3=CC12 (centres undefined) , what is its reported IRF reporter? 0.738

Reported IRF reporter for CCCN(CCC)CCc1cccc2c1CC(=O)N2.Cl : what is it? 0.925

Could you share which IRF reporter value was measured for COc1ccc(C=C2C(=O)N(c3ccc(C(=O)O)cc3)N=C2C)cc1 ? 1.22

Any idea what IRF reporter was measured for Cc1cc(OCc2nc(-c3ccc(Cl)cc3Cl)no2)ccc1Br ? 1.15

Data request, read-out IRF reporter, for CCOC(=O)C1=C(N)OC(C)=C(C(=O)OC)C1c1cccnc1 (centres undefined) 1.12

What does the data say about its IRF reporter? Entry: COc1ccc(Nc2nc(N3CCCC(C)C3)nc3[nH]ncc23)cc1 (centres undefined) 0.905

Suppose we examine the compound O=C(O)c1cc(NC(=O)c2ccc(Cl)c([N+](=O)[O-])c2)cc(C(=O)O)c1 ; what IRF reporter value has been reported? 1.04

Name the reported IRF reporter value associated with the compound CN1C(=O)C(=Cc2cccc3ccccc23)SC1=S 1.26

Data request, read-out IRF reporter, for C[C@@H]1CCN(C(=O)CC#N)C[C@@H]1N(C)c1ncnc2[nH]ccc12.O=C(O)CC(O)(CC(=O)O)C(=O)O 0.366

Consider the compound CN1CCC(COc2cnc(-c3cccc(Cn4nc(-c5cccc(C#N)c5)ccc4=O)c3)nc2)CC1 and give its measured IRF reporter. 1.11

Origin of measurements: the supplement of paper PMC10646978
